Examples of binders with documented optical density follow.
- Tgt: mouse ACVR2A (mouse, UniProt P27038 20-135, limits assumed)
- Sequence (P27038 20-135 limits assumed): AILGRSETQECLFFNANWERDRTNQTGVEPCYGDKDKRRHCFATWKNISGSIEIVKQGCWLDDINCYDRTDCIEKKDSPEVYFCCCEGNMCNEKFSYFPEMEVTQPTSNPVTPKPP
- Protocol text: ELISA; also: test concentration or dose not given here
Give the quantity in OD, number only.

Completed entries (count: 2):
Binder	Outcome measure	Recorded number
374_H04 (antibody, V domains shown, VH/VL only) VH: EVQLLESGGGLVQPGGSLRLSCAASGFTFDSYSMNWVRQAPGKGLEWVSGINYNSGYTSYADSVKGRFTISRDNSKNTLYLQMNSLRAEDTAVYYCARSANWHDTALDYWGQGTLVTVSS VL: DIQMTQSPSSLSASVGDRVTITCRASQSILTYLNWYQQKPGKAPKLLIYAATSRASGVPSRFSGSGSGTDFTLTISSLQPEDFATYYCQQSYDNPLTFGGGTKVEIK	optical density	3.31
367_A09 (antibody, V domains shown, VH/VL only) VH: EVQLLESGGGLVQPGGSLRLSCAASGFTFDSYGMNWVRQAPGKGLEWVAGINYNGGYTSYADSVKGRFTISRDNSKNTLYLQMNSLRAEDTAVYYCARSATWHDTHLDYWGQGTLVTVSS VL: DIQMTQSPSSLSASVGDRVTITCRASQSILSYVNWYQQKPGKAPKLVIYAATSRHSGVPSRFSGSGSGTDFTLTISSLQPEDFATYYCQQSYDTPLTFGGGTKVEIK	optical density	2.41

# ---- query binder ----
Data request: Fill in: optical density of 374_C05 (antibody, V domains shown, VH/VL only) VH: EVQLLESGGGLVQPGGSLRLSCAASGFTFDSYSMNWVRQAPGKGLEWVAGINYNSGYKSYADSVKGRFTISRDNSKNTLYLQMNSLRAEDTAVYYCARSATWHDTHLDYWGQGTLVTVSS VL: DIQMTQSPSSLSASVGDRVTITCRASQSIIRYLNWYQQKPGKAPKLVIYAATSRASGVPSRFSGSGSGTDFTLTISSLQPEDFATYYCQQSYDNPLTFGGGTKVEIK is ___
Data returned: 3.69
